# key: entry, value: pIC50
molecular target: hCB1R (Homo sapiens, UniProt P21554); test: HTRF cAMP assay, antagonist mode (forskolin with CP55,940)
Sequence (P21554 whole entry): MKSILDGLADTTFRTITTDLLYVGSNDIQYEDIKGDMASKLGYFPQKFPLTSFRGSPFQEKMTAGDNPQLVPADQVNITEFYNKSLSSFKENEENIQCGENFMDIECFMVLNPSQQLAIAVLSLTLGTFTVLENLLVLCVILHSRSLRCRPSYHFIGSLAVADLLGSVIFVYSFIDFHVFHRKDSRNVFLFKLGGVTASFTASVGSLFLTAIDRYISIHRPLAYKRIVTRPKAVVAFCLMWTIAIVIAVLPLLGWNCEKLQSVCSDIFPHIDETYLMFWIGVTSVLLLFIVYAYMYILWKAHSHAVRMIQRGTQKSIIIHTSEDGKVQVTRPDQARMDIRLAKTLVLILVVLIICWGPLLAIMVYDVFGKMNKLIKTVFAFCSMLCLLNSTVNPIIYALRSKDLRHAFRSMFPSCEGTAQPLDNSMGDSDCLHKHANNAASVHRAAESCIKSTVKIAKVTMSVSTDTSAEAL
pIC50: −log10 of the molar value.
outcome_measure: pIC50

INSERT INTO assay_data (compound, observed_value) VALUES
  ('CCC(CC)(NC(=O)c1cc(-c2cc(C(F)(F)F)ccc2C(F)(F)F)n(C[C@H]2CCCO2)c1C)C(=O)NCCOCCOCCNc1ccc([N+](=O)[O-])c2nonc12 [Compound 28]', 6.40),
  ('CCC(CC)(NC(=O)c1nn(-c2ccc(Cl)cc2Cl)c(-c2ccc(Cl)cc2)c1C)C(=O)NCCOCCOCCNC(=O)OC(C)(C)C [Compound 23b]', 5.80),
  ('CCOC(=O)C(CC)(CC)NC(=O)c1cc(-c2cc(C(F)(F)F)ccc2C(F)(F)F)n(C[C@H]2CCCO2)c1C [Compound 14]', 8.00),
  ('CCOC(=O)C(CC)(CC)NC(=O)c1cnc(OCC2CC2)c(-c2ccc(F)cc2)c1 [Compound 17]', 5.40),
  ('CCC(CC)(NC(=O)c1cc(-c2cc(C(F)(F)F)ccc2C(F)(F)F)n(C[C@H]2CCCO2)c1C)C(=O)NCCOCCOCCNC(=O)OC(C)(C)C [Compound 22b]', 6.00);
